Tested on: OVCAR-8 ovarian
Assay: NCI-60 one-dose screen, 48 h (100 = growth as untreated, 0 = no growth, -100 = all killed)
Details: 10 µM unless noted
Compounds without any hit were thinned out: in the full panel of roughly 83,000, 20% have a hit. Active and inactive are the calls of the source. How the source made its calls: active means growth percent below 10; inactive means the rest.
Measurement type: growth

Example cases with answers are listed next.
Compound: CN1CCN(c2ccc(/C=N/Nc3nc4ccccc4c(=O)n3-c3ccccc3)cc2)CC1
growth: 102% (inactive)

Compound: COc1c(N2CC3CCCNC3C2)c(F)cc2c(=O)c(C(=O)N/N=C/c3c[nH]c4ccccc34)cn(C3CC3)c12 (centres undefined)
growth: 99% (inactive)

Compound: CN1CCN(Cc2ccc(NC(=O)c3cncc(C#Cc4cnc5ccc(NCCCO)nn45)c3)cc2C(F)(F)F)CC1
growth: -8.06% (active)

Compound: Nc1nc(N)c2c(n1)NC(c1ccc(C(F)(F)F)cc1)CC(c1ccc(Nc3nc(NCCO)nc(N4CCOCC4)n3)cc1)=N2 (centres undefined)
growth: 60.2% (inactive)

Compound: N/C(=N\C(N)=N\c1nc2ccccc2s1)c1ccc2ccccc2c1
growth: 84.8% (inactive)

Compound: C#C[C@]1(O)CC[C@H]2[C@@H]3CC=C4c5sc(-c6cccc(O)c6)nc5CC[C@]4(C)[C@H]3CC[C@@]21C
growth: 9.55% (active)

Compound: Cc1ccc(-n2c(/C=C3\C(=O)Nc4ccccc43)ccc2CO)cc1
growth: 94.3% (inactive)

Compound: Brc1ccccc1/C=N/Nc1nc(N/N=C/c2ccccc2Br)nc(N2CCOCC2)n1
growth: 96.6% (inactive)

Field: next compound
# compound "Cc1ccc2c(c1)C(=O)/C(=C/c1cccc(F)c1)S2" ; its growth = 103% (inactive)

----------
Tested on: SNB-75 CNS
Experiment: NCI-60 one-dose screen, 48 h
Settings: 10 µM unless noted
Compounds without any hit were thinned out: in the full panel of roughly 83,000, 20% have a hit. Active and inactive are the calls of the source. How the source made its calls: active means growth percent below 10; inactive means the rest.
Outcomes you can answer with include only these: active, inactive

Molecule: CNC(=O)c1cc(-c2ccc(NC(=S)Nc3cc(C(F)(F)F)cc(C(F)(F)F)c3)cc2)nc2cccnc12
Assigned label: inactive

QUERY: Dear all, I need the recorded test outcome for "COc1ccc(CCN2C(=O)CSC2=S)cc1" , thank you.
RESULT: inactive

QUERY: Dear all, I need the recorded test outcome for "COc1ccc(-c2nn(-c3ccc(S(C)(=O)=O)cc3)cc2/C=N/O)cc1" , thank you.
RESULT: inactive

QUERY: Dear all, I need the recorded test outcome for "Cc1cc2ncc(-c3cc4ccccc4c(N4CCN(C)CC4)n3)nc2cc1C" , thank you.
RESULT: inactive

QUERY: Dear all, I need the recorded test outcome for "COc1cc(-c2nn(C(C)(C)C)cc2-c2ccnc(NCCCNS(=O)(=O)c3ccc(C)cc3)n2)ccc1Cl" , thank you.
RESULT: inactive

QUERY: Dear all, I need the recorded test outcome for "O=C(CSc1nnc(-c2ccc3nc(-c4ccccc4)[nH]c3c2)o1)Nc1ccc(C(=O)/C=C/c2ccccc2)cc1" , thank you.
RESULT: inactive

QUERY: Dear all, I need the recorded test outcome for "CC(C)(C)c1ccc(CC(=O)Nc2sc3c(c2C(N)=O)CCC(=O)C3)cc1" , thank you.
RESULT: inactive

QUERY: Dear all, I need the recorded test outcome for "CC1(C)CC[C@]2(CN)CC[C@]3(C)C(=CC[C@@H]4[C@@]5(C)CCCNC(C)(C)[C@@H]5CC[C@]43C)[C@H]2C1" , thank you.
RESULT: inactive

QUERY: Dear all, I need the recorded test outcome for "COc1ccc(Oc2ccc(/C=N/NC(=O)CSc3nc4ccccc4c(=O)n3-c3ccc(Cl)cc3)cc2)cc1" , thank you.
RESULT: inactive

QUERY: Dear all, I need the recorded test outcome for "C=C=COc1cccc(/C(N)=N/C(N)=N/c2nc3ccccc3s2)c1" , thank you.
RESULT: inactive

QUERY: Dear all, I need the recorded test outcome for "O=C(CSc1nc2ccccc2c(=O)n1-c1ccccc1)Nc1cccc(C(=O)/C=C/c2ccccc2Cl)c1" , thank you.
RESULT: inactive

QUERY: Dear all, I need the recorded test outcome for "COc1ccc(/C=C/C(=O)c2cc(S(N)(=O)=O)c(OC)cc2OC)cc1" , thank you.
RESULT: inactive

QUERY: Dear all, I need the recorded test outcome for "COc1ccc([C@@H]2[C@@H](O)C(=O)N2c2cc(OC)c(OC)c(OC)c2)cc1F" , thank you.
RESULT: inactive

QUERY: Dear all, I need the recorded test outcome for "Cn1ccnc1C(=O)/C=C/C=C/c1ccc(C(=O)Nc2ccc(F)cc2)cc1" , thank you.
RESULT: inactive

QUERY: Dear all, I need the recorded test outcome for CCO/C=N/C1=C(C#N)C(c2ccc(F)cc2)c2sc3c(C)cccc3c2O1 (centres undefined) , thank you.
RESULT: active

QUERY: Dear all, I need the recorded test outcome for O=C1Nc2ccccc2/C1=C/c1ccc(COCC2CO2)n1-c1ccc(O)cc1 (centres undefined) , thank you.
RESULT: inactive

QUERY: Dear all, I need the recorded test outcome for "Cc1nc2ncc(-c3ccc4ncnc(NCc5ccccc5)c4c3)cc2[nH]1" , thank you.
RESULT: inactive

QUERY: Dear all, I need the recorded test outcome for "C=CC(=O)N1CCC=C(c2cc3c(N[C@H](C)c4ccccc4)ncnc3[nH]2)C1" , thank you.
RESULT: active

QUERY: Dear all, I need the recorded test outcome for "CC(C)(C)c1ccc(C(=O)Nc2sc3c(c2C(N)=O)CC/C(=N\O)C3)cc1" , thank you.
RESULT: inactive

----------
Tested on: SF-539 CNS
Assay: NCI-60 one-dose screen, 48 h
Conditions: 10 µM unless noted
The panel holds about 83,000 compounds, 20% with a hit somewhere; the sample as a whole holds those more often. Calls of active or inactive are those of the source. The calls were made as follows: active = growth percent below 10; inactive = the rest.
Outcomes you can answer with include only these: TRUE (active), FALSE (inactive)

Check out these entries, answers already filled in.
Compound: Cc1cc(S(=O)(=O)N(C)C)cc(NCC(=O)NC(=O)NCC(C)C)c1C
Study target: SF-539 CNS
Assigned label: FALSE

Compound: Cc1ccc2sc3c(c2c1)OC(N)=C(C#N)C3c1cccc(F)c1 (stereo not drawn)
Study target: SF-539 CNS
Assigned label: TRUE

Compound: CC1=N[C@@H]2CN(C(=O)OC(C)(C)C)C[C@@H]2n2c1cc1ccccc1c2=O
Study target: SF-539 CNS
Assigned label: FALSE

Compound: Cc1ccc(S(=O)(=O)NCCNc2nc(Nc3ccc(N4CCN(C)CC4)cc3)nc3ccsc23)cc1
Study target: SF-539 CNS
Assigned label: FALSE

QUERY: Dear all, I need the recorded test outcome for "COc1cc(/C=C2\C(=O)Nc3ccccc32)ccc1OCc1ccc(Cl)cc1" , thank you.
RESULT: FALSE

QUERY: Dear all, I need the recorded test outcome for "Cc1cc(C)cc(C(=O)Nc2cccc(C#Cc3cccc4[nH]nc(N)c34)c2)c1" , thank you.
RESULT: FALSE

QUERY: Dear all, I need the recorded test outcome for "C[C@@H](Nc1ncnc2ccc(-c3cnc(Cl)c(NS(C)(=O)=O)c3)cc12)c1ccccc1" , thank you.
RESULT: FALSE

QUERY: Dear all, I need the recorded test outcome for "COc1ccc(Cn2cc3c(c2-c2cc(OC)c(OC)c(OC)c2)CCc2c(CN4CCOCC4)noc2-3)cc1" , thank you.
RESULT: TRUE

QUERY: Dear all, I need the recorded test outcome for "C=CCN(C)S(=O)(=O)/N=C1\NC(=O)NC1=C(Cl)Cl" , thank you.
RESULT: TRUE

QUERY: Dear all, I need the recorded test outcome for "C=C(C)[C@@H]1CC[C@]2(COC)CC[C@]3(C)[C@H](CC[C@@H]4[C@@]5(C)CCCNC(C)(C)[C@@H]5CC[C@]43C)[C@@H]12" , thank you.
RESULT: FALSE

QUERY: Dear all, I need the recorded test outcome for "O=S(=O)(Nc1cccc2ccccc12)c1ccc(-c2cnc(C3CC3)o2)cc1" , thank you.
RESULT: TRUE

QUERY: Dear all, I need the recorded test outcome for CCc1ccc(SC2c3ccc(N(CC)CC)cc3Oc3nc(N)c(C#N)c(N)c32)cc1 (stereo not drawn) , thank you.
RESULT: TRUE

QUERY: Dear all, I need the recorded test outcome for "C=CCn1c(-c2nc3ccc(C(=C(C#N)C#N)c4ccccc4)cc3[nH]2)cc2cc(Br)ccc21" , thank you.
RESULT: FALSE

QUERY: Dear all, I need the recorded test outcome for "Nc1nc(Nc2ccccc2SSc2ccccc2Nc2nc(N)nc(-c3ccccc3)n2)nc(-c2ccccc2)n1" , thank you.
RESULT: FALSE

----------
Tested on: 786-0 renal
Test: NCI-60 one-dose screen, 48 h (100 = growth as untreated, 0 = no growth, -100 = all killed)
Conditions: 10 µM unless noted
The panel holds about 83,000 compounds, 20% with a hit somewhere; the sample as a whole holds those more often.
Label Yes when growth is strictly below 60%; otherwise label No.

Check out these entries, answers already filled in.
Compound: O=c1[nH]c2ccccc2cc1CSc1ccccc1Nc1nccc(-c2ccc(Cl)cc2)n1
Assigned label: No
--
Compound: COc1ccc2c(c1)c(CC(=O)[Se]CC#N)c(C)n2C(=O)c1ccc(Cl)cc1
Assigned label: Yes

QUERY: Please determine if COC(=O)C(Cc1ccccc1)Nc1nc(NC(Cc2ccccc2)C(=O)OC)nc(N2CCOCC2)n1 (centres undefined) is below 60% in terms of growth.
RESULT: No

QUERY: Please determine if "O=C(Nc1nc2ccc([N+](=O)[O-])cc2s1)Nc1ccccc1Br" is below 60% in terms of growth.
RESULT: No

QUERY: Please determine if O=C(NNc1nc2cc(F)c(F)cc2n2c(CN3CC4CNCC4C3)ccc12)c1cnccn1 (centres undefined) is below 60% in terms of growth.
RESULT: Yes
